# Target: T1, FL-Mip1 (mitochondrial DNA polymerase gamma) (Saccharomyces cerevisiae, UniProt P15801 30-1254)
# T1 sequence: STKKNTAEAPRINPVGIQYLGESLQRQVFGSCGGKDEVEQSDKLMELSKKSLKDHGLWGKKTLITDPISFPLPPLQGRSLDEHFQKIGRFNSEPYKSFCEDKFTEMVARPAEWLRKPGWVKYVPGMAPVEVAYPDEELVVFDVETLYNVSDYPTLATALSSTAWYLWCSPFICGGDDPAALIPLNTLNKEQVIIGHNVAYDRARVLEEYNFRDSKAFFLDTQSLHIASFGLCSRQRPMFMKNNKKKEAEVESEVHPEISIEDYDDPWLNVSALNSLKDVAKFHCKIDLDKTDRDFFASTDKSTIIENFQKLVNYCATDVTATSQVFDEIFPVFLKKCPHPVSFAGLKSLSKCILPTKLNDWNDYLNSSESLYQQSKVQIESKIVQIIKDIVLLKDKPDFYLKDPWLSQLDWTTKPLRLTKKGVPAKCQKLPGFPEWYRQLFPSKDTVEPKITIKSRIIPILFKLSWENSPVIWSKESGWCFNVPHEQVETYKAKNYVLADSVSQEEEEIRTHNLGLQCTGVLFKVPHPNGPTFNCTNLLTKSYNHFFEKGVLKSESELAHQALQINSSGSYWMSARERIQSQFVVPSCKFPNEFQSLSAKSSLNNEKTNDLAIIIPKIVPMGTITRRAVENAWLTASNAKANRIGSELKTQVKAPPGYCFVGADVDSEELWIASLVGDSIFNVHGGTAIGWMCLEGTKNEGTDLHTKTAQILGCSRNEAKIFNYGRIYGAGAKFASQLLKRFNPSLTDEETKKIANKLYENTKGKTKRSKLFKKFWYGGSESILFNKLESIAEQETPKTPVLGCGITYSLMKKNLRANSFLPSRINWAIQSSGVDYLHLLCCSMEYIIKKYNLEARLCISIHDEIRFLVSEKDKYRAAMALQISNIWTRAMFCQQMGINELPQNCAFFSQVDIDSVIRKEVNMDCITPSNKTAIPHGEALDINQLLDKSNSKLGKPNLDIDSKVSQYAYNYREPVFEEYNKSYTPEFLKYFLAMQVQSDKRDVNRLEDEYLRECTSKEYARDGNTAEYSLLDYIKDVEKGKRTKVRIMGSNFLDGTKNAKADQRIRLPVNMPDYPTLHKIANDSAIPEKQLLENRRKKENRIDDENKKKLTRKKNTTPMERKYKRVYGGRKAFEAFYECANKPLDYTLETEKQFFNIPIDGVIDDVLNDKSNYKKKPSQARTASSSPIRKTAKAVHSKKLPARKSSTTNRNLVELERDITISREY
# Protocol details: EMSA; no Mg2+ or dNTP in binding mix; EMSA: 1 nM substrate, 0.2-12.5 nM polymerase, 20 mM Tris-HCl pH 8.0, 40 mM KCl, 10% glycerol, 0.1 mg/ml BSA, 2 mM DTT, 2 min at 0°C; native 8% Tris-glycine gel
# Conditions used: protein: recombinant; tags: N-terminal 6xHis; label: 32P at 5' end of D25 primer; 25 bp duplex, 5' overhang 20 nt on D45 (recessed primer 3' end)
Readout: pKd
Please express pKd as -log10 of the molar concentration.

pKd for 45/25 primer-template (D45/D25) (dsDNA) DNA 1: GGACGGCATTGGATCGAGGTTGAGTTGGTTGGACGGCTGCGAGGC DNA 2: GCCTCGCAGCCGTCCAACCAACTCA ? 8.37
